Biological target: ERα (Homo sapiens)
Sequence (P03372 1-595): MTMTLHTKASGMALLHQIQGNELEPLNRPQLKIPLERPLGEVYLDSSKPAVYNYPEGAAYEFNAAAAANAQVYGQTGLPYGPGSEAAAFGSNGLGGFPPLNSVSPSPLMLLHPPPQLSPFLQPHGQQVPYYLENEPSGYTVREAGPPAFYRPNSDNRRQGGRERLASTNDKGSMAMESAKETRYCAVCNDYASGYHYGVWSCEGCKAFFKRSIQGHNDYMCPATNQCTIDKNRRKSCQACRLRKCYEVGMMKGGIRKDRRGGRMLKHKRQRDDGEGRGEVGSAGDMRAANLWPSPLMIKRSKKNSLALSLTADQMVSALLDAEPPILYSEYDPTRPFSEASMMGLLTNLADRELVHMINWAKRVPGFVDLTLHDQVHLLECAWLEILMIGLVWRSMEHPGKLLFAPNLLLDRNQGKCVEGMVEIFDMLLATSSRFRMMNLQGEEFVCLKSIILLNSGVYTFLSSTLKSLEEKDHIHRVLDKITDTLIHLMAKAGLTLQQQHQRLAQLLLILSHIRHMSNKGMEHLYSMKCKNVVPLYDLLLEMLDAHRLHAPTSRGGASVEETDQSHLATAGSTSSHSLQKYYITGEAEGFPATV
Experiment: ERα degradation in MCF-7 cells (Western blot)
Assay type: cell-based
Parameters: host or cells: MCF-7
Details: 1nM, 4 hours
Listing: Degradation rate of ERα in MCF-7 cells (%) of selected compounds
Numeric only. Scale: %

- compound: "Cn1c(=O)n(C2CCC(=O)NC2=O)c2ccc3c(c21)OCC31CCN(C2CCN(C(=O)C3CCN(c4ccc([C@@H]5c6ccc(O)cc6CC[C@@H]5c5ccccc5)cc4)CC3)CC2)CC1 (some centres unmarked) [ER-P-13]"
  reading.unit: "%"
  numeric.result: 72

Request: Dear colleague, I am looking for the recorded Degradation rate of ERα in MCF-7 cells (%) of the following compound: Cn1c(=O)n(C2CCC(=O)NC2=O)c2cc3c(cc21)C1(CCN(CC2CCN(c4ccc([C@@H]5c6ccc(O)cc6CC[C@@H]5c5ccccc5)cc4)CC2)CC1)CO3 (some centres unmarked) [ER-P-24]
Response: -68

Request: Dear colleague, I am looking for the recorded Degradation rate of ERα in MCF-7 cells (%) of the following compound: O=C1CC[C@H](NC(=O)c2ccc3c(c2F)OCC32CCN(C3CCC4(CC3)CN(c3ccc([C@@H]5c6ccc(O)cc6CC[C@@H]5c5ccccc5)cc3)C4)CC2)C(=O)N1 [ER-P-38]
Response: 12

###

system: T-47D cells; assay: Inhibition of cell proliferation in T-47D cells (CCK-8); type: cell-based; details: Homo sapiens, T47D, 144 h, 6 days treatment, CCK-8 cell viability
Listing: IC50 of selected compounds
Numeric only. Scale: nM

// below: answered compounds
- compound: "Cn1c(=O)n(C2CCC(=O)NC2=O)c2ccc3c(c21)C1(CCN(C(=O)[C@H]2CC[C@H](CN4CCN(c5ccc([C@@H]6c7ccc(O)cc7CC[C@@H]6c6ccccc6)cc5)CC4)CC2)CC1)CO3 (some centres unmarked)"
  tested.on: "T-47D cells"
  IC50 [nM]: 1.74
- compound: "O=C1CCC(N2Cc3c(ccc4c3OCC43CCC4(CC3)CN(C3CCC5(CC3)CCN(c3ccc([C@@H]6c7ccc(O)cc7CC[C@@H]6c6ccccc6)cc3)CC5)C4)C2=O)C(=O)N1 (some centres unmarked)"
  tested.on: "T-47D cells"
  IC50 [nM]: 1.96
- compound: "COc1cc2c(cc1C(=O)NC1CCC(=O)NC1=O)C1(CCN(CC3CCC(OC4CCN(c5ccc(C6c7ccc(O)cc7CCC6c6ccccc6)cc5)CC4)CC3)CC1)CO2 (centres unmarked)"
  tested.on: "T-47D cells"
  IC50 [nM]: 150

Request: Dear colleague, I am looking for the recorded IC50 of the following compound: Cn1c(=O)n(C2CCC(=O)NC2=O)c2cc3c(cc21)C1(CCN(C2CCC4(CC2)CCN(c2ccc([C@@H]5c6ccc(O)cc6CC[C@@H]5c5ccccc5)cc2)CC4)CC1)CO3 (some centres unmarked)
Response: 1.41

Request: Dear colleague, I am looking for the recorded IC50 of the following compound: O=C1CCC(Nc2ccc3c(c2)OC2(CC3)CCN(C[C@H]3CC[C@@H](OC4CCN(c5ccc([C@@H]6c7ccc(O)cc7CC[C@@H]6c6ccccc6)cc5)CC4)CC3)CC2)C(=O)N1 (some centres unmarked)
Response: 95.1
